# koff per record follows
- targetOrTestSystem: T1, hen egg white lysozyme (Gallus gallus (hen egg white), UniProt P00698)
- T1 construct: hen egg white lysozyme (HEWL), 14.5 kDa, monomeric; The source is named for ITC (Roche powder); also called HEWL; source: bought: Roche (HEWL lysozyme powder, > 95%)
- T1 sequence (P00698 19-147): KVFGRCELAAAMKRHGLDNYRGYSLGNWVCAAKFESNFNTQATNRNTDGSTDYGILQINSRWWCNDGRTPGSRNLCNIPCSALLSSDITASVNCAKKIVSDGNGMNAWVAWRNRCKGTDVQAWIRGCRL
- assayProcedure: SPR; Biacore T200; lysozyme amine-coupled (EDC/NHS) to a CM5 chip, max 100 units; nanobody as analyte, multi-cycle kinetics; PBS with 0.01% tween20; 20 °C (row labels of Table 1); Langmuir 1:1 model
- conditionNotes: both partners purified
readoutKind: koff (s⁻¹)

binder	readoutKind	readoutNumber
H04 nanobody (VHH, crystal structure with lysozyme PDB 4U3X (Rouet et al. 2015); CDR3 of 12 residues; Developed in Daniel Christ's group (Rouet et al. 2015); source: E. coli T7-Express, purified (IMAC, Superdex-75)) VHH: EVQLLESGGGLVQPGGSLRLSCAASGFRFDAEDMGWVRQAPGKGLEWVSSIYGPSGSTYYADSVKGRFTISRDNSKNTLYLQMNSLRAEDTAVYYCAKYTSPPQNHGFDYWGQGTLVTVSS	koff	0.0008
H04 H106A nanobody (VHH, as the chain of m2 (H04) with H106A in CDR3; source: E. coli T7-Express, purified (IMAC, Superdex-75)) VHH: EVQLLESGGGLVQPGGSLRLSCAASGFRFDAEDMGWVRQAPGKGLEWVSSIYGPSGSTYYADSVKGRFTISRDNSKNTLYLQMNSLRAEDTAVYYCAKYTSPPQNAGFDYWGQGTLVTVSS	koff	0.056
Cab-Lys3 S105N nanobody (VHH, as the chain of m6 (Cab-Lys3) with S105N in CDR3; source: E. coli T7-Express, purified (IMAC, Superdex-75)) VHH: DVQLQASGGGSVQAGGSLRLSCAASGYTIGPYCMGWFRQAPGKEREGVAAINMGGGITYYADSVKGRFTISQDNAKNTVYLLMNSLEPEDTAIYYCAADSTIYANYYECGHGLSTGGYGYDSWGQGTQVTVSS	koff	0.0028
Cab-Lys3 T101S nanobody (VHH, as the chain of m6 (Cab-Lys3) with T101S in CDR3; source: E. coli T7-Express, purified (IMAC, Superdex-75)) VHH: DVQLQASGGGSVQAGGSLRLSCAASGYTIGPYCMGWFRQAPGKEREGVAAINMGGGITYYADSVKGRFTISQDNAKNTVYLLMNSLEPEDTAIYYCAADSSIYASYYECGHGLSTGGYGYDSWGQGTQVTVSS	koff	0.029
Phage-B09 nanobody (VHH, selected by phage display from the NaLi-H1 synthetic library (Hybrigenics); also called P-B09; source: E. coli T7-Express, purified (IMAC, Superdex-75)) VHH: EVQLQASGGGFVQPGGSLRLSCAASGSTYRRSTMGWFRQAPGKEREFVSAISSDHSHPDYYADSVKGRFTISRDNSKNTVYLQMNSLRAEDTATYYCAFQYDSDKKSYWGQGTQVTVSS	koff	0.6
Cab-Lys3 nanobody (VHH, crystal structure PDB 1XFP named for it (Muyldermans and Lauwereys 1999); CDR3 of 24 residues with an extra disulphide between CDR1 and CDR3; also called WT Cab-Lys3; source: E. coli T7-Express, purified (IMAC, Superdex-75)) VHH: DVQLQASGGGSVQAGGSLRLSCAASGYTIGPYCMGWFRQAPGKEREGVAAINMGGGITYYADSVKGRFTISQDNAKNTVYLLMNSLEPEDTAIYYCAADSTIYASYYECGHGLSTGGYGYDSWGQGTQVTVSS	koff	0.0009
